Provide the reported IC50 of each item.
tested_on: Cathepsin D (Cat D) (Homo sapiens (Human))
Sequence (P07339 65-412, species assumed): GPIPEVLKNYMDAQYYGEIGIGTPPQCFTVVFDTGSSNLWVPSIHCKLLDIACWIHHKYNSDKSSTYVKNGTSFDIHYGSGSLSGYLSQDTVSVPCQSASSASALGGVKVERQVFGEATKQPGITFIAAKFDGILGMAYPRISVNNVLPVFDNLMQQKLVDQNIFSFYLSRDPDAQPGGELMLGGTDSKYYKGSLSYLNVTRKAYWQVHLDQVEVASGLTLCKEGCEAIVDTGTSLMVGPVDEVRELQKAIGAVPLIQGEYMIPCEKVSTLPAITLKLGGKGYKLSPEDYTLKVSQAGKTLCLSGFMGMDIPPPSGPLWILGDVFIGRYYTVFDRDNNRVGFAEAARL
test_protocol: In vitro enzymatic Cathepsin D (Cat D) FRET assay
Assay type: biochemical
test_parameters: average IC50; read-out: CatD IC50

Example cases with answers are listed next.
[
  {
    "compound": "N#Cc1cncc(-c2ccc(F)c([C@]3(CF)C[C@@H](C(F)(F)F)OC(N)=N3)c2)c1",
    "value_observed": "129 µM"
  },
  {
    "compound": "C[C@@]1(c2nc(NC(=O)c3ccc(Cl)cn3)ccc2F)C[C@@H](C(F)(F)F)OC(N)=N1",
    "value_observed": "> 400 µM"
  },
  {
    "compound": "C[C@@]1(c2cc(NC(=O)c3ncc(Cl)cc3Cl)cnc2F)C[C@@H](C(F)(F)F)OC(N)=N1",
    "value_observed": "> 400 µM"
  }
]

Consider the following items and state reported IC50 for each.
1. N#Cc1ccc(C(=O)Nc2ccc(F)c([C@]3(CF)C[C@@H](C(F)(F)F)OC(N)=N3)c2)nc1
2. NC1=N[C@](CF)(c2nc(NC(=O)c3ccc(Cl)cn3)ccc2F)C[C@@H](C(F)(F)F)O1
3. COc1ccc(C(=O)Nc2cccc([C@]3(CF)C[C@@H](C(F)(F)F)OC(N)=N3)c2)nc1
4. Cc1cc(C#N)cnc1C(=O)Nc1cnc(F)c([C@]2(C)C[C@@H](C(F)(F)F)OC(N)=N2)c1
5. NC1=N[C@](CF)(c2cc(Oc3cnccn3)ccc2F)C[C@@H](C(F)(F)F)O1
6. C[C@@]1(c2nc(NC(=O)c3ccc(C#N)cn3)ccc2F)C[C@@H](C(F)(F)F)OC(N)=N1

1: > 400 µM; 2: > 400 µM; 3: 3520 µM; 4: > 400 µM; 5: > 400 µM; 6: > 400 µM

Consider the following items and state reported IC50 for each.
1. NC1=N[C@](CF)(c2cc(Oc3ncccc3F)ccc2F)C[C@@H](C(F)(F)F)O1
2. Cn1cc(NC(=O)c2ccc(C#N)cn2)cc([C@]2(C)C[C@@H](C(F)(F)F)OC(N)=N2)c1=O

1: 2220 µM; 2: > 400 µM

Consider the following items and state reported IC50 for each.
1. COc1cnc2c(Nc3ccc(F)c([C@]4(CF)C[C@@H](C(F)(F)F)OC(N)=N4)c3)ncnc2c1
2. Cc1cc(Cl)cnc1C(=O)Nc1ccc(F)c([C@]2(C)C[C@@H](C(F)(F)F)OC(N)=N2)c1 (racemic)
3. C[C@@]1(c2nc(NC(=O)c3ncc(Br)cc3Cl)ccc2F)C[C@@H](C(F)(F)F)OC(N)=N1
4. COc1cnc(C(=O)Nc2cnc(F)c([C@]3(C)C[C@@H](C(F)(F)F)OC(N)=N3)c2)c(Cl)c1

1: > 400 µM; 2: 202 µM; 3: 636 µM; 4: > 400 µM
